Tested on: Cryptococcus neoformans
recorded-conditions: Concentration 20 uM; ASSAY_TEST Inhibition of Fungal Growth; detection method Resazurin; Absorption (OD600-OD570); plate type 384well; NBS; CORNING #3640
Potency and affinity values are given separately.
Please respond with reported Inhibition for every item in the list.
# answer = value followed by unit

Value of Inhibition reported for the compound CCCSc1ccc2[nH]c(NC(=O)OC)nc2c1 [ALBENDAZOLE] is 42.52%

Value of Inhibition reported for the compound `Cl.Nc1nc2ccc(OC(F)(F)F)cc2s1` is -9.1%

Value of Inhibition reported for the compound `Cc1cccc(CCN2CCC(C(=O)c3ccc(NS(C)(=O)=O)cc3)CC2)n1.Cl.Cl` is -8.23%

Value of Inhibition reported for the compound OC[C@H]1O[C@@H](Oc2cc(O)cc(/C=C/c3ccc(O)cc3)c2)[C@H](O)[C@@H](O)[C@@H]1O [PICEID] is -0.2%

Value of Inhibition reported for the compound C#C[C@]1(O)CC[C@H]2[C@@H]3CCc4cc(OC)ccc4[C@H]3CC[C@@]21C [MESTRANOL] is -7.53%

###

Tested on: Candida albicans
recorded-conditions: 20 µM
Potency and affinity values are given separately.
Please respond with reported Inhibition for every item in the list.
Just the number please, in %, no unit attached.

Value of Inhibition reported for the compound NS(=O)(=O)c1cc(C(=O)O)c(NCc2ccco2)cc1Cl [FUROSEMIDE] is 3.34

Value of Inhibition reported for the compound CC(=O)OCC(=O)C12OC3(CCCC3)OC1CC1C3CCC4=CC(=O)C=CC4(C)C3(F)C(O)CC12C (stereo not given) is 3.39

Value of Inhibition reported for the compound `CC[C@H]1OC(=O)[C@H](C)C(=O)[C@H](C)[C@@H](O[C@@H]2O[C@H](C)C[C@H](N(C)C)[C@H]2O)[C@](C)(OC)C[C@@H](C)C(=O)[C@H](C)[C@@H]2N(CCCCn3cnc(-c4cccnc4)c3)C(=O)O[C@@]21C` is 0.39

Value of Inhibition reported for the compound O=C(O)c1cccnc1 [NIACIN] is 2.72

Value of Inhibition reported for the compound CN(C)CCCN1c2ccccc2Sc2ccc(Cl)cc21.Cl [CHLORPROMAZINE HYDROCHLORIDE] is 0.59

Value of Inhibition reported for the compound CS(=O)(=O)OCCCCOS(C)(=O)=O [BUSULFAN] is 3.72

Value of Inhibition reported for the compound CC(C)Oc1ccc2c(=O)c(-c3ccccc3)coc2c1 [IPRIFLAVONE] is 3.92

Value of Inhibition reported for the compound `Cc1cccc(CCN2CCC(C(=O)c3ccc(NS(C)(=O)=O)cc3)CC2)n1.Cl.Cl` is 2.81

Value of Inhibition reported for the compound CCCN1CCCC[C@H]1C(=O)Nc1c(C)cccc1C.Cl [ROPIVACAINE HYDROCHLORIDE] is 3.24

Value of Inhibition reported for the compound Cc1ncc([N+](=O)[O-])n1CC(O)CCl (stereo not given) [ORNIDAZOLE] is 2.15

Value of Inhibition reported for the compound Cc1cccc(Nc2ccccc2C(=O)O)c1C [MEFENAMIC ACID] is 7.85

Value of Inhibition reported for the compound C#C[C@]1(O)CC[C@H]2[C@@H]3CCC4=CC(=O)CC[C@@H]4[C@H]3CC[C@@]21CC [LEVONORGESTREL] is 3.12

Value of Inhibition reported for the compound COC(=O)Nc1nc2cc(C(=O)c3ccccc3)ccc2[nH]1 [MEBENDAZOLE] is 4.65

Value of Inhibition reported for the compound `CCN(CC)CCNC(=O)c1cc(Cl)c(N)cc1OC.Cl` is 3.69

Value of Inhibition reported for the compound Nc1nc2c(ncn2COC(CO)CO)c(=O)[nH]1 [GANCICLOVIR] is 0

Value of Inhibition reported for the compound CC(C)Cc1ccc(C(C)C(=O)O)cc1 (stereo not given) [IBUPROFEN] is 13.3

Value of Inhibition reported for the compound `C[C@H]1[C@@H](OC(=O)CCC(=O)O)O[C@@H]2O[C@@]3(C)CC[C@H]4[C@H](C)CC[C@@H]1[C@@]24OO3` is 26.5

Value of Inhibition reported for the compound COc1cc2nc(N3CCN(C(=O)C4COc5ccccc5O4)CC3)nc(N)c2cc1OC (stereo not given) [DOXAZOSIN] is 3.14

Value of Inhibition reported for the compound OCCN1CCN(CCCN2c3ccccc3Sc3ccc(Cl)cc32)CC1 [PERPHENAZINE] is 3.82

Value of Inhibition reported for the compound COc1ccc(OC)c(C(O)CNC(=O)CN)c1.Cl (stereo not given) [MIDODRINE HYDROCHLORIDE] is 2.18

Value of Inhibition reported for the compound CCN(Cc1ccncc1)C(=O)C(CO)c1ccccc1 (stereo not given) [TROPICAMIDE] is 0.91

Value of Inhibition reported for the compound Cc1cnc(C(=O)NCCc2ccc(S(=O)(=O)NC(=O)NC3CCCCC3)cc2)cn1 [GLIPIZIDE] is 3.06

Value of Inhibition reported for the compound COC1=CC(=O)C[C@@H](C)[C@]12Oc1c(Cl)c(OC)cc(OC)c1C2=O [GRISEOFULVIN] is 3.42

Value of Inhibition reported for the compound CC1=C(CC(=O)O)c2cc(F)ccc2/C1=C\c1ccc([S+](C)[O-])cc1 (stereo not given) is 3.98

Value of Inhibition reported for the compound OCc1cccnc1 [NICOTINYL ALCOHOL] is 2.84

Value of Inhibition reported for the compound O=C(O[C@H]1[C@H](Oc2ccccc2COC(=O)C2(O)C=CCCC2=O)O[C@H](CO)[C@@H](O)[C@@H]1O)c1ccccc1 (stereo not given in full) [TREMULACIN] is 3.13

Value of Inhibition reported for the compound CSc1nc2cc(Cl)c(Oc3cccc(Cl)c3Cl)cc2[nH]1 [TRICLABENDAZOLE] is 7.82

Value of Inhibition reported for the compound NC(=O)N1c2ccccc2C=Cc2ccccc21 [CARBAMAZEPINE] is 4.45

Value of Inhibition reported for the compound O=[N+]([O-])c1cccc2cn[nH]c12 [7-NITROINDAZOLE] is 3.19

Value of Inhibition reported for the compound COc1cc(/C=C/c2ccc(O)cc2)cc(OC)c1 [PTEROSTILBENE] is 3.65

###

Test system: Candida albicans
recorded-conditions: 20 µM
Entries with a potency or affinity are not part of this list.
Please respond with reported Inhibition for every item in the list.
Just the number please, in %, no unit attached.

Short answer on Candida albicans for CC(C(=O)[O-])c1ccc(CC2CCCC2=O)cc1.[Na+] (centres undefined) [LOXOPROFEN SODIUM] , Inhibition: 2.26

Short answer on Candida albicans for CCOC(=O)C1=C(C)NC(C)=C(C(=O)OC)C1c1cccc(Cl)c1Cl (centres undefined) , Inhibition: 1.71

Short answer on Candida albicans for `CC(O)CO.N[C@@H](C(=O)N[C@@H]1C(=O)N2C(C(=O)O)=C(CSc3c[nH]nn3)CS[C@H]12)c1ccc(O)cc1` , Inhibition: 12.3

Short answer on Candida albicans for COC(=O)CCc1ccc(OCC(O)CNC(C)C)cc1.Cl (centres undefined) [ESMOLOL HYDROCHLORIDE] , Inhibition: 1.99

Short answer on Candida albicans for CC(COc1ccccc1Cc1ccccc1)N1CCCCC1.O=P(O)(O)O (centres undefined) , Inhibition: 3.69

Short answer on Candida albicans for Cl.Clc1ccccc1CN1CCc2sccc2C1 [TICLOPIDINE HYDROCHLORIDE] , Inhibition: 1.25

Short answer on Candida albicans for `O=c1cnn([C@@H]2O[C@H](CO)[C@@H](O)[C@H]2O)c(=O)[nH]1` , Inhibition: 7.12

Short answer on Candida albicans for O=C1CN(/N=C/c2ccc(-c3ccc([N+](=O)[O-])cc3)o2)C(=O)[N-]1.[Na+] [DANTROLENE SODIUM] , Inhibition: 0.63

Short answer on Candida albicans for COc1ccc([C@@H]2Sc3ccccc3N(CCN(C)C)C(=O)[C@@H]2OC(C)=O)cc1.Cl [DILTIAZEM HYDROCHLORIDE] , Inhibition: 4.02

###

System: Klebsiella pneumoniae
recorded-conditions: Concentration 20 uM; ASSAY_TEST Inhibition of Bacterial Growth; detection method Absorption (OD600); MEDIA CAMHB; plate type 384well; NBS; CORNING #3640; time 18 hr
Entries with a potency or affinity are not part of this list.
Please respond with reported Inhibition for every item in the list.
Just the number please, in %, no unit attached.

Value of Inhibition reported for the compound `Nc1nc(Cl)nc2c1ncn2[C@@H]1O[C@H](CO)[C@@H](O)[C@H]1O` is 2.26

Value of Inhibition reported for the compound `Cc1onc(-c2ccccc2)c1-c1ccc(S(N)(=O)=O)cc1` is 13.38

Value of Inhibition reported for the compound `CN[C@@H]1[C@H](O)[C@H](NC)[C@H]2O[C@@]3(O)C(=O)C[C@@H](C)O[C@H]3O[C@@H]2[C@H]1O.Cl.Cl.Cl.O.O.O` is 37.26

Value of Inhibition reported for the compound `O=C(O)c1cc(-c2ccc(F)cc2F)ccc1O` is 3.43

Value of Inhibition reported for the compound NC(=O)N1c2ccccc2C=Cc2ccccc21 [CARBAMAZEPINE] is 5.59

Value of Inhibition reported for the compound `CC(C)C[C@H](NC(=O)[C@@H](O)[C@H](N)Cc1ccccc1)C(=O)O` is 12.45

Value of Inhibition reported for the compound CCCCC(=O)O[C@H]1CC[C@H]2[C@@H]3CCc4cc(O)ccc4[C@H]3CC[C@]12C [ESTRADIOL VALERATE] is 8.52

Value of Inhibition reported for the compound CC(=O)O[C@H]1C[C@@H]2CC[C@@H]3[C@H](CC[C@@]4(C)[C@H]3C[C@H]([N+]3(C)CCCCC3)[C@@H]4OC(C)=O)[C@@]2(C)C[C@@H]1N1CCCCC1.[Br-] [VECURONIUM BROMIDE] is -0.14

Value of Inhibition reported for the compound `CN1C(=O)CC[C@H]1c1cccnc1` is 5.32

Value of Inhibition reported for the compound CC[C@@]1(O)C(=O)OCc2c1cc1n(c2=O)Cc2cc3c(CN(C)C)c(O)ccc3nc2-1.Cl [TOPOTECAN HYDROCHLORIDE] is 17.31

Value of Inhibition reported for the compound `COC1=CC(=O)C[C@@H](C)[C@]12Oc1c(Cl)c(OC)cc(OC)c1C2=O` is 11.08
